Biological target: recombinant ROCK2 (amino acids 1-552) (Homo sapiens (Human), UniProt O75116)
Sequence (O75116 1-552): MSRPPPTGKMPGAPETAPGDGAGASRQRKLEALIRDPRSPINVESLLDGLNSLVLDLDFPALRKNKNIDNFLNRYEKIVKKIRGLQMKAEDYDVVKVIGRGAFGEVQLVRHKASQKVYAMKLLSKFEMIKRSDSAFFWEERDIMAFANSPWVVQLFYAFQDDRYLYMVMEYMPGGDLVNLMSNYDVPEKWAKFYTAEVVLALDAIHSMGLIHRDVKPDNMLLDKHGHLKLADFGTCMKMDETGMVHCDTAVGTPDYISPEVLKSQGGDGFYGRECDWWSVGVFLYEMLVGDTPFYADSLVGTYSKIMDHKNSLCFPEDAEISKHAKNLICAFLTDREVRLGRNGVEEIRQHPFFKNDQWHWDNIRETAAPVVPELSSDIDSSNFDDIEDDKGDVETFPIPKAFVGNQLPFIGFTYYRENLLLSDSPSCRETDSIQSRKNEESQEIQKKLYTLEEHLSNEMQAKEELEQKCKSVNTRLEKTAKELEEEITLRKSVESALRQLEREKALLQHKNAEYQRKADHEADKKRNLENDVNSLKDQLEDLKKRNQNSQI
Experiment: Z'-lyte kinase assay, ROCK2
For each of the molecules below, state its pIC50.
Answers are plain numbers, as −log10 of the molar value.

{"columns": ["molecule", "endpoint-value"],
 "data": [
  ["CNC(C(=O)Nc1ccc(-c2cn[nH]c2)cc1)c1ccc(F)cc1 (centres unmarked)", 8.32],
  ["CNC(C(=O)Nc1ccc(-c2cn[nH]c2)cc1)c1ccc(Cl)cc1 (centres unmarked)", 8.20],
  ["CNC(=O)c1cccc(C(NC)C(=O)Nc2ccc(-c3cn[nH]c3)cc2)c1 (centres unmarked)", 8.72],
  ["CNC(C(=O)Nc1ccc(-c2cn[nH]c2)cc1)c1cccc(C)c1 (centres unmarked)", 8.17]
]}

Let's switch to this molecule now.
query: Identify the reported pIC50 for the following entry. CCN(CCOC)C(C(=O)Nc1ccc(-c2cn[nH]c2)cc1)c1cccc(OC)c1 (centres unmarked)
result: 6.97

* * *

Biological target: recombinant ROCK2 (amino acids 1-552) (Homo sapiens (Human))
Test: Z'-lyte kinase assay, ROCK2
So I've got a bunch of compounds here, and I need their log10 of IC50 values.
Annotation: log10 of IC50, nM basis.

// below: answered compounds
{"columns": ["compound", "endpoint-value"],
 "data": [
  ["CNC(C(=O)Nc1ccc(-c2cn[nH]c2)cc1)c1ccc2nc(C)[nH]c2c1 (stereo not drawn) [Example 35]", 2.69],
  ["CNC(C(=O)Nc1ccc(-c2cn[nH]c2)cc1)c1cccc(OC)c1 (stereo not drawn) [Example 2]", 0.60],
  ["COc1cccc(C(NCC(N)=O)C(=O)Nc2ccc(-c3cn[nH]c3)cc2)c1 (stereo not drawn) [Example 41]", 1.08],
  ["CNC(C(=O)Nc1ccc(-c2cn[nH]c2)cc1)c1cccc(OC(F)F)c1 (stereo not drawn) [Example 24]", 1.34],
  ["CNC(C(=O)Nc1ccc(-c2cn[nH]c2)cc1)c1ccc(C(=O)OC)cc1 (stereo not drawn) [Example 34]", 2.49]
]}

Consider the following items and state reported log10 of IC50 for each.
1. COCCNC(C(=O)Nc1ccc(-c2cn[nH]c2)c(OC)c1)c1cccc(OC)c1 (stereo not drawn) [Example 56]
2. COc1cccc([C@H](NCCN(C)C)C(=O)Nc2ccc(-c3cn[nH]c3)cc2)c1 [Example 60]

result:
0.72
1.99

Provide log10 of IC50 for all items below, preserving their order.
1. CNC(C(=O)Nc1ccc(-c2cn[nH]c2)cc1)c1ccc2nc(C)sc2c1 (stereo not drawn) [Example 27]
2. CCNC(C(=O)Nc1ccc(-c2cn[nH]c2)cc1)c1cccc(Cl)c1 (stereo not drawn) [Example 16]

result:
1.81
0.54

* * *

Could you please report measured pIC50 for the items listed next?
Target: recombinant ROCK1 (amino acids 1-535) (Homo sapiens (Human))
Sequence (Q13464 1-535): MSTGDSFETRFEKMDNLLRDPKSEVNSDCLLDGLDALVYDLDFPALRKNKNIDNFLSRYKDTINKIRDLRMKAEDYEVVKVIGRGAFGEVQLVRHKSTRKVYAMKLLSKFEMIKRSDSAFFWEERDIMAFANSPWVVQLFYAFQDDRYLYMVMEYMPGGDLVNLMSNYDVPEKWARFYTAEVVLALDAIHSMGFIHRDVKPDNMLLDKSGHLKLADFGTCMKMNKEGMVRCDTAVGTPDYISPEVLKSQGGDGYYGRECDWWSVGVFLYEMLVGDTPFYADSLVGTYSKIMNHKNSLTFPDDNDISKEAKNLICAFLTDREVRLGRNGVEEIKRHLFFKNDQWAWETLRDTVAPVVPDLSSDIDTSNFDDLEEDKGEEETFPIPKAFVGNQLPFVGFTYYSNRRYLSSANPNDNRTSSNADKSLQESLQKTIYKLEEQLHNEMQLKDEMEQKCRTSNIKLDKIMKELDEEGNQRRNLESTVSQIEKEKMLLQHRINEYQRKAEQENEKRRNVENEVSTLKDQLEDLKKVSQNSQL
Assay: Z'-lyte kinase assay, ROCK1
Numbers only, as −log10 of the molar value.

Please review the entries below; each comes with its answer.
{"columns": ["compound", "endpoint-value"],
 "data": [
  ["CNC(C(=O)Nc1ccc(-c2cn[nH]c2)cc1)c1cccc(OC)c1 (stereo not drawn)", 7.77],
  ["CNC(C(=O)Nc1ccc(-c2cn[nH]c2)cc1)c1cccc(OC(F)F)c1 (stereo not drawn)", 7.06]
]}

Now turn to the next compound.
query: Determine its reported pIC50: COCCN[C@H](C(=O)Nc1ccc(-c2cn[nH]c2)cc1)c1cccc(OC)c1
result: 6.12

* * *

Hi there, I'd appreciate the recorded pIC50 for every entry that follows.
Target: recombinant ROCK2 (amino acids 1-552) (Homo sapiens (Human), UniProt O75116)
Assay: Z'-lyte kinase assay, ROCK2
Give bare numbers, as −log10 of the molar value.

{"columns": ["compound", "target-of-assay", "pIC50"],
 "data": [
  ["CNCCN[C@H](C(=O)Nc1ccc(-c2cn[nH]c2)cc1)c1cccc(OC)c1", "recombinant ROCK2 (amino acids 1-552) (Homo sapiens (Human), UniProt O75116)", 7.66],
  ["COc1cccc(C(NCc2cn[nH]c2)C(=O)Nc2ccc(-c3cn[nH]c3)cc2)c1 (stereo not drawn)", "recombinant ROCK2 (amino acids 1-552) (Homo sapiens (Human), UniProt O75116)", 7.28],
  ["CCNC(C(=O)Nc1ccc(-c2cn[nH]c2)cc1)c1ccc(Cl)cc1 (stereo not drawn)", "recombinant ROCK2 (amino acids 1-552) (Homo sapiens (Human), UniProt O75116)", 8.05],
  ["COc1cccc(C(NCCOC(C)C)C(=O)Nc2ccc(-c3cn[nH]c3)cc2)c1 (stereo not drawn)", "recombinant ROCK2 (amino acids 1-552) (Homo sapiens (Human), UniProt O75116)", 7.35],
  ["COCCNC(C(=O)Nc1cc(F)c(-c2cn[nH]c2)cc1OCCN(C)C)c1cccc(OC)c1 (stereo not drawn)", "recombinant ROCK2 (amino acids 1-552) (Homo sapiens (Human), UniProt O75116)", 7.17]
]}

Could I get pIC50 for every one of these entries?
1. COc1cccc(C(NCCN2CCOCC2)C(=O)Nc2ccc(-c3cn[nH]c3)cc2)c1 (stereo not drawn)
2. COc1cccc(C(NCCCN(C)C)C(=O)Nc2ccc(-c3cn[nH]c3)cc2)c1 (stereo not drawn)
3. CNC(C(=O)Nc1ccc(-c2cn[nH]c2)cc1)c1cccc(Cl)c1 (stereo not drawn)
4. CNC(C(=O)Nc1ccc(-c2cn[nH]c2)cc1)c1ccc(C)cc1 (stereo not drawn)
5. CNCCCNC(C(=O)Nc1ccc(-c2cn[nH]c2)cc1)c1cccc(OC)c1 (stereo not drawn)
6. CNC(C(=O)Nc1ccc(-c2cn[nH]c2)cc1)c1cccc(N(C)C)c1 (stereo not drawn)
7. CCNC(C(=O)Nc1ccc(-c2cn[nH]c2)cc1)c1cccc(F)c1 (stereo not drawn)
8. CNCCN1CCCN(c2ccc(-c3cn[nH]c3)cc2)C(=O)C1c1cccc(OC)c1 (stereo not drawn)

result:
1: 8.62; 2: 8.06; 3: 8.77; 4: 8.51; 5: 8.19; 6: 7.09; 7: 7.62; 8: 6.02

* * *

Target: recombinant ROCK2 (amino acids 1-552) (Homo sapiens (Human))
Experiment: Z'-lyte kinase assay, ROCK2
property-measured: pIC50
Answers are plain numbers, as −log10 of the molar value.

Some molecules with known pIC50 results, for comparison:
{"columns": ["molecule", "property-measured", "endpoint-value"],
 "data": [
  ["COCCN[C@@H](C(=O)Nc1ccc(-c2cn[nH]c2)cc1)c1cccc(OC)c1", "pIC50", 7.92],
  ["CNC(C(=O)Nc1cc(OC)c(-c2cn[nH]c2)cc1F)c1cccc(OC)c1 (stereo not shown)", "pIC50", 7.74],
  ["CNC(C(=O)Nc1cc(F)c(-c2cn[nH]c2)cc1OCCN(C)C)c1cccc(OC)c1 (stereo not shown)", "pIC50", 8.52]
]}

// below: pIC50 requested for another molecule
query: Please list pIC50 recorded for the molecule COCCN(C)C(C(=O)Nc1ccc(-c2cn[nH]c2)cc1)c1cccc(OC)c1 (stereo not shown)
result: 7.52

* * *

Tested on: ppMlc (T18/S19) levels in A7R5 cells
Assay: A7R5 in-cell ELISA assay (ppMlc)
Format: cell-based, rat
Conditions: Rattus norvegicus, A7R5, A7R5 cells, Table 2; read-out: pMLC IC50 (nM) A7R5
property-measured: IC50 (nM)
One number for each entry, in nM.

Some compounds with recorded IC50:
{"columns": ["compound", "IC50 (nM)"],
 "data": [
  ["CCNC(C(=O)Nc1ccc(-c2cn[nH]c2)cc1)c1cccc(Cl)c1 (centres unmarked) [Example 16]", 292],
  ["COc1cccc([C@@H](NCCN(C)C)C(=O)Nc2ccc(-c3cn[nH]c3)cc2)c1 [Example 61]", 35],
  ["COCCN(C)C(C(=O)Nc1ccc(-c2cn[nH]c2)cc1)c1cccc(OC)c1 (centres unmarked) [Example 47]", 321]
]}

Turning now to a further record.
query: Supply reported IC50 belonging to this compound: CNC(C(=O)Nc1ccc(-c2cn[nH]c2)cc1)c1ccc(C)cc1 (centres unmarked) [Example 21]
result: 47

* * *

Target: recombinant ROCK2 (amino acids 1-552) (Homo sapiens (Human))
Experiment: Z'-lyte kinase assay, ROCK2
Format: biochemical
Conditions: @ 0.5 μM; read-out: ROCK2 % inh (0.5 μM)
Would you kindly list inhibition at 0.5 µM for each of these compounds?
Numbers only, in %.

Observe how each entry below is paired with its result.
{"columns": ["compound", "inhibition at 0.5 µM (%)"],
 "data": [
  ["CNC(C(=O)Nc1ccc(-c2cn[nH]c2)cc1)c1ccc(F)cc1 (stereo not drawn)", 90],
  ["CNC(C(=O)Nc1ccc(-c2cn[nH]c2)cc1)c1cccc(F)c1 (stereo not drawn)", 89],
  ["CNC(C(=O)Nc1ccc(-c2cn[nH]c2)cc1)c1ccc(OC)c(F)c1 (stereo not drawn)", 91],
  ["CNC(C(=O)Nc1ccc(-c2cn[nH]c2)cc1)c1cccc(Cl)c1 (stereo not drawn)", 94],
  ["CNC(C(=O)Nc1ccc(-c2cn[nH]c2)cc1)c1ccc(Cl)cc1 (stereo not drawn)", 98]
]}

query: Give me measured inhibition at 0.5 µM, please, for this compound: CNC(C(=O)Nc1ccc(-c2cn[nH]c2)cc1)c1cccc(OC(F)F)c1 (stereo not drawn)
result: 97
